- Tested on: HepG2 cell line
- test.name: MTT cytotoxicity assay, HepG2
- Format: cell-based
- run.conditions: Homo sapiens, HepG2, 72 h, average of two determinations, NA = No Activity
# maps each entry to its IC50
Use µM as the unit, but write only the number.

Worked cases, IC50 given:
Cc1ccc(C2=NN(c3nc4c(c(N5CCOCC5)n3)CSCC4)[C@@H](c3ccc(Cl)c(Cl)c3)C2)cc1 [Compound 7b]	27.8
O=S1(=O)CCc2nc(N3N=C(c4ccc(F)cc4)C[C@@H]3c3ccc(F)cc3)nc(N3CCOCC3)c2C1 [Compound 8g]	36

Read the next record carefully.
IC50 reading for COc1ccc(C2=NN(c3nc4c(c(N5CCOCC5)n3)CS(=O)(=O)CC4)[C@@H](c3ccc(F)cc3)C2)cc1 [Compound 8h] : 32.9

----------
- Tested on: MCF-7 cell line
- test.name: MTT cytotoxicity assay, MCF-7
- Type: cell-based
- run.conditions: Homo sapiens, MCF7, 72 h, average of two determinations, NA = No Activity
parameter.measured: IC50 (µM)
Use µM as the unit, but write only the number.

Worked cases, IC50 given:
O=S1(=O)CCc2nc(N3N=C(c4ccc(F)cc4)C[C@@H]3c3ccc(F)cc3)nc(N3CCOCC3)c2C1	35.3
O=S1(=O)CCc2nc(N3N=C(c4ccc(F)cc4)C[C@@H]3c3ccc(Cl)c(Cl)c3)nc(N3CCOCC3)c2C1 (racemic)	10.3
O=S1(=O)CCc2nc(N3N=C(c4ccccc4)C[C@@H]3c3ccc(Cl)c(Cl)c3)nc(N3CCOCC3)c2C1	35.3
COc1ccc(C2=NN(c3nc4c(c(N5CCOCC5)n3)CSCC4)[C@@H](c3ccc(F)cc3)C2)cc1	30.3
O=S1(=O)CCc2nc(N3N=C(c4ccccc4)C[C@@H]3c3ccc(Br)cc3)nc(N3CCOCC3)c2C1	32.6
O=S1(=O)CCc2nc(N3N=C(c4ccc(Br)cc4)C[C@@H]3c3ccc(Cl)c(Cl)c3)nc(N3CCOCC3)c2C1	43.9

Tested on MCF-7 cell line: `Fc1ccc(C2=NN(c3nc4c(c(N5CCOCC5)n3)CSCC4)[C@@H](c3ccc(F)cc3)C2)cc1` . Observed IC50: 26.4

Tested on MCF-7 cell line: `Fc1ccc(C2=NN(c3nc4c(c(N5CCOCC5)n3)CSCC4)[C@@H](c3ccc(Cl)c(Cl)c3)C2)cc1` . Observed IC50: 10.3

Tested on MCF-7 cell line: Clc1ccc([C@H]2CC(c3ccccc3)=NN2c2nc3c(c(N4CCOCC4)n2)CSCC3)cc1Cl (racemic) . Observed IC50: 35.9

Tested on MCF-7 cell line: `c1ccc(C2=NN(c3nc4c(c(N5CCOCC5)n3)CSCC4)[C@@H](c3ccccc3)C2)cc1` . Observed IC50: 21.7

Tested on MCF-7 cell line: `Clc1ccc([C@H]2CC(c3ccc(Br)cc3)=NN2c2nc3c(c(N4CCOCC4)n2)CSCC3)cc1Cl` . Observed IC50: 23

Tested on MCF-7 cell line: CS(=O)(=O)N1CCN(Cc2cc3nc(-c4cccc5[nH]ncc45)nc(N4CCOCC4)c3s2)CC1 [GDC-0941, Pictilisib dimethanesulfonate, reference compound] . Observed IC50: 4.3

Tested on MCF-7 cell line: `COc1ccc(C2=NN(c3nc4c(c(N5CCOCC5)n3)CS(=O)(=O)CC4)[C@@H](c3ccc(F)cc3)C2)cc1` . Observed IC50: 33.9

Tested on MCF-7 cell line: `Cc1ccc(C2=NN(c3nc4c(c(N5CCOCC5)n3)CSCC4)[C@@H](c3ccc(Cl)c(Cl)c3)C2)cc1` . Observed IC50: 42.6

----------
# maps each entry to its melting point

Worked cases, melting point given:
O=S1(=O)CCc2nc(N3N=C(c4ccc(Br)cc4)C[C@@H]3c3ccc(Cl)c(Cl)c3)nc(N3CCOCC3)c2C1	162 to 163 °C
O=S1(=O)CCc2nc(N3N=C(c4ccc(F)cc4)C[C@@H]3c3ccc(F)cc3)nc(N3CCOCC3)c2C1	246 to 249 °C
Brc1ccc([C@H]2CC(c3ccccc3)=NN2c2nc3c(c(N4CCOCC4)n2)CSCC3)cc1	167 to 168 °C
c1ccc(C2=NN(c3nc4c(c(N5CCOCC5)n3)CSCC4)[C@@H](c3ccccc3)C2)cc1	139 to 142 °C
Cc1ccc(C2=NN(c3nc4c(c(N5CCOCC5)n3)CS(=O)(=O)CC4)[C@@H](c3ccc(Cl)c(Cl)c3)C2)cc1	225 to 226 °C
Clc1ccc([C@H]2CC(c3ccc(Br)cc3)=NN2c2nc3c(c(N4CCOCC4)n2)CSCC3)cc1Cl	185 to 186 °C

Read the next record carefully.
melting point reading for `O=S1(=O)CCc2nc(N3N=C(c4ccccc4)C[C@@H]3c3ccccc3)nc(N3CCOCC3)c2C1` : 219 to 220 °C
